Data origin, for the record: patent US5210193A

System: Escherichia coli CMC 84-11
Assay: in vitro antibacterial MIC, agar plate dilution
Format: cell-based
Settings: Escherichia coli, CMC8411, 18 h, 35° C., read-out: MIC
Procedure: The in vitro antimicrobial spectrum of the compounds of ths invention were determined by the agar plate dilution method with Mueller-Hinton agar and an inoculum of each test organism of approximately 10^4 colony forming units delivered by the Steers replicating device. The minimal inhibitory concentration (MIC) in mcg/ml is defined as the lowest concentration of test compound that inhibited visible growth after 18 hours incubation at 35° C. […]
outcome-measure: MIC (µg/mL)

[P] CCn1cc(C(=O)O)c(=O)c2cc(F)c(N3CCNC(c4cccs4)C3)cc21 (stereo not shown) [Example 26]
[Q] CCn1cc(C(=O)O)c(=O)c2cc(F)c(N3CCN(C)C(c4ccnn4C)C3)cc21 (stereo not shown) [Example 110]
Prompt: Which entry has a larger number for MIC, P or Q ? Returns: label corresponding to the selected item.
Completion: Q

---

Test system: Enterobacter cloacae K 84-10
Assay: in vitro antibacterial MIC, agar plate dilution
Assay type: cell-based
Settings: Enterobacter cloacae, K8410, 18 h, 35° C., read-out: MIC
Description: The in vitro antimicrobial spectrum of the compounds of ths invention were determined by the agar plate dilution method with Mueller-Hinton agar and an inoculum of each test organism of approximately 10^4 colony forming units delivered by the Steers replicating device. The minimal inhibitory concentration (MIC) in mcg/ml is defined as the lowest concentration of test compound that inhibited visible growth after 18 hours incubation at 35° C. […]
outcome-measure: MIC (µg/mL)

{"columns": ["compound", "study-target", "outcome-measure", "uom", "endpoint-result"],
 "data": [
  ["O=C(O)c1cn(C2CC2)c2cc(N3CCNC(c4ccoc4)C3)c(F)cc2c1=O (centres unmarked)", "Enterobacter cloacae K 84-10", "MIC", "µg/mL", 0.06],
  ["CCn1cc(C(=O)O)c(=O)c2cc(F)c(N3CCNC(c4ccncc4)C3)cc21 (centres unmarked)", "Enterobacter cloacae K 84-10", "MIC", "µg/mL", 2],
  ["CCn1cc(C(=O)O)c(=O)c2cc(F)c(N3CCNC(c4ccoc4)C3)cc21 (centres unmarked)", "Enterobacter cloacae K 84-10", "MIC", "µg/mL", 0.25]
]}

[A] O=C(O)c1cn(-c2ccc(F)cc2)c2cc(N3CCNC(c4ccco4)C3)c(F)cc2c1=O (centres unmarked)
[B] CCn1cc(C(=O)O)c(=O)c2c(F)c(F)c(N3CCSCC3)c(F)c21
[C] CN1CCN(c2cc3c(cc2F)c(=O)c(C(=O)O)cn3C2CC2)CC1C1CC1 (centres unmarked)
[D] CCn1cc(C(=O)O)c(=O)c2cc(F)c(N3CCNC(c4ccc(C)s4)C3)cc21 (centres unmarked)
Prompt: Ordering criterion: MIC; begin with the maximum. # the answer lists labels in the order requested
Completion: B, D, A, C
(B: 2 µg/mL, D: 1 µg/mL, A: 0.25 µg/mL, C: 0.06 µg/mL)

---

Tested on: Klebsiella pneumoniae IO 83-5
Assay: in vitro antibacterial MIC, agar plate dilution
Assay type: cell-based
Conditions: Klebsiella pneumoniae, IO835, 18 h, 35° C., read-out: MIC
outcome-measure: MIC (µg/mL)

[A] O=C(O)c1cn(C2CC2)c2cc(N3CCNC(c4cc[nH]c4)C3)c(F)cc2c1=O (stereo not shown) [Example 119]
[B] CCn1cc(C(=O)O)c(=O)c2cc(F)c(N3CCNC(c4ccncc4)C3)cc21 (stereo not shown) [Example 123]
[C] CCn1cc(C(=O)O)c(=O)c2cc(F)c(N3CCNC(c4ccncc4)C3)c(F)c21 (stereo not shown) [Example 127]
[D] CN1CCN(c2cc3c(cc2F)c(=O)c(C(=O)O)cn3C2CC2)CC1C1CC1 (stereo not shown) [Example 125]
Prompt: Highest to lowest MIC: rank the entries shown above. # the answer lists labels in the order requested
Completion: B, C, D, A
